Numbers sourced from patent US11230526B1.

biological target: Human GPR120 short form (Homo sapiens, UniProt Q5NUL3); construct: expressed in transfected cells; experiment: Human GPR120 calcium flux assay, Procedure Calcium B (4200 cells/well); type: cell-based
Sequence (Q5NUL3 whole entry): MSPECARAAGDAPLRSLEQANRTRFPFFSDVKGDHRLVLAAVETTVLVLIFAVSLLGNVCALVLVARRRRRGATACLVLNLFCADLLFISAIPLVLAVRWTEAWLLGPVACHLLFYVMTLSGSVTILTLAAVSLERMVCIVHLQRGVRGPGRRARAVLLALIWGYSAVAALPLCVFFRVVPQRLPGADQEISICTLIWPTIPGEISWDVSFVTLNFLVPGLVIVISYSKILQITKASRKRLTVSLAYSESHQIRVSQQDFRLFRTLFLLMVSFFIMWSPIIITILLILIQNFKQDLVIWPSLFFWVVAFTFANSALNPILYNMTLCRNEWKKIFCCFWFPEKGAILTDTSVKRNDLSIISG
Consider the following compounds; for each one, report its pEC50.
Kindly note that pEC50 refers to -log10 of the concentration in mol/L and answer with the value alone.

QUERY: Request the reported pEC50 associated with Cc1ccc(C2=C(COc3c(F)cc(CCC(=O)O)cc3F)CCC2)cc1 [Compound 95]
RESULT: 7.49

QUERY: Request the reported pEC50 associated with Cc1c(CCC(=O)O)ccc(OCC2=C(c3ccccc3)CC(F)(F)C2)c1C [Compound 194]
RESULT: 7.44

QUERY: Entry under review: O=C(O)CCc1ccc(OCC2=C(c3ccc(Cl)cc3F)CCC2)cc1C(F)(F)F [Compound 285] . Reported pEC50?
RESULT: 6.48

QUERY: I have this compound here, O=C(O)CCc1ccc(OCC2=C(C3CCCC3)CCCCC2)cc1 [Compound 614] , and I need its recorded pEC50.
RESULT: 6.42

QUERY: Given Cc1c(CCC(=O)O)ccc(OCC2=C(c3ccc(C(F)(F)F)cc3)CCC2)c1C [Compound 75] , state its recorded pEC50.
RESULT: 6.71

QUERY: Field request: pEC50 | item: O=C(O)CCc1ccc(OCC2=C(c3cc(Cl)ccc3F)CCC2)cc1Cl [Compound 342]
RESULT: 6.29

QUERY: Reported pEC50, compound Cc1cc(CCC(=O)O)c(C(F)(F)F)cc1OCC1=C(c2ccc(Cl)cc2)CCC1 [Compound 98] : ____
RESULT: 5.69

QUERY: // returns reported pEC50 for input Cc1c(CCC(=O)O)ccc(OCC2=C(c3cccs3)CCCC2)c1C [Compound 482]
RESULT: 7.04

QUERY: What pEC50 value was documented for this compound, O=C(O)CCc1ccc(OCC2=C(C3=CCCCC3)CCC2)cc1C(F)(F)F [Compound 354] ?
RESULT: 5.75
